- System: CDK5;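 also: KINOMEscan kinase panel screen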
- measurement.conditions: concentration: 1 μM, replicates: in singlicate; n = 1
readout.label: %Inh

Prompt: Under CDK5, report %Inh for COc1nccc(-c2c(-c3ccc(F)cc3)ncn2CCCN2CCOCC2)n1
Response: 0%

Prompt: Under CDK5, report %Inh for COC(=O)C(Cc1ccccc1)NC(=O)NC1CCN(c2ccnc(Nc3ccc(F)cc3)n2)C1 (stereo not shown)
Response: 0%

Prompt: Under CDK5, report %Inh for Cc1ccc(NC(=O)Nc2ccc(Cl)c(C(F)(F)F)c2)cc1-c1ccc(C(=O)Nc2ccncc2)cc1
Response: 0%

Prompt: Under CDK5, report %Inh for Cc1nccc(-c2c(-c3ccc(F)cc3)ncn2CCCN2CCOCC2)n1.Cl
Response: 3%
